OD reference
tgt: human IgG3 antibody (#I5654; Sigma-Aldrich) (human)
protocol_description: ELISA

{"columns": ["binder", "OD"],
 "data": [
  ["R2-16 (scFv, not shown: small tags and cut ends) scFv: QSVKESGGRLVTPGTPLTLTCTVSGFSLSSYAMGWVRQAPGKGLEYIGIISSSGSTYYASWAKGRFTISKTSTTVDLKITSPTTEDTATYFCARYSGDNGGALNLWGPGTLVTVTSGGGGSGGGGSGGGGSELDLTQTAASVSEPVGGTVTISCQSSQHIRSYLAWYQQKPGQPPKLLISAASTLASGVSSRFKGSGSGTEFTLTISDLECADAATYYCQRYYDIRNYGNGFGGGTEVEITGS", 3.05],
  ["IgA R3-18 (scFv, not shown: small tags and cut ends) scFv: QSLEESGGRLVTPGTPLTLTCTVSGIDLSSNAMTWVRQAPGEGLEWIGTISTGGSTYFASWAKGRFTISKTSTTVDLKITSPTTEDTATYFCATRYDSYGYAYNYWFGTLWGPGTLVTVTSGGGGSGGGGSGGGGSELVMTQTAASVSEPVGGTVTIKCQASQNINNELAWYQQKPGQRPKLLIYDASKLASGVPSRFSGSGSGTEFTLTISGMQCDDAATYYCQSTYYDGNYVYAFGGGTEVDVKGS", 2.99],
  ["R3-26 (scFv, not shown: small tags and cut ends) scFv: QEQLVESGGGLVKPGGTLTLTCTVSGIDLSSYAMSWVRQVPGKGLEWIGIIGSGGGTAYANWAKGRFTISKTSSTTVDLKMTSLTTEDTATYFCATDYGIYGYAYGHLWGPGTLVTVTSGGGGSGGGGSGGGGSELVMTQTASPVSAAVGGTVTIKCQASQSISTALAWYQQRPGQPPKLLIYDASTLASGVSSRFKGSGSGTEFTLTISDLECADAATYYCQTYFGSDTDNAFGEGTEVEITGS", 3.14],
  ["R3-8 (scFv, not shown: small tags and cut ends) scFv: QSLEESGGRLVTPGTPLTLTCTVSGIDLSSNAMTWVRQAPGEGLEWIGTISTGGSTYFASWAKGRFTISKTSTTVDLKITSPTTEDTATYFCATRYDSYGYAYNYWFGTLWGPGTLVTVTSGGGGSGGGGSGGGGSELVMTQTAASVSEPVGGTVTINCQASQSISDELAWYQQKPGQRPKLLIYDASDLASGVPSRFSGSGSGTEFTLTISGVQCDDAATYYCQSAYYDGRYVYAFGGGTEVEVTGS", 3.06],
  ["R1-27 (scFv, not shown: small tags and cut ends) scFv: QQQLMESGGGLVTPGTPLTLTCTVSGIDLRRYAMGWVRQAPGKGLQWIGIIASGNTDYASWAKGRFTISATSTTVDLKITSSTTEDTATYFCARYSGDNGGTLNLWGPGTLATVTTGGGGSGGGGSGGGGSELVMTQTAASVSEPVGGTVTIKCQASEHIRNYLAWYQQKPGQPPKLLIYTTSNLASGVPSRFSGSGSGTEYTLTISDLECADAATYYCQNYYDISTYGNTFGGGTEVDVKGS", 3.08],
  ["R3-58 (scFv, not shown: small tags and cut ends) scFv: QQQLMESGGRLVTPGGSLTLTCTVSGIDLNSYAMGWVRQAPGKGLEYIGIIRNSGNTYYASWAKGRFTISKTSSTTVDLKMTSLTTEDTATYFCARYSGDNGGALNLWGPGTLVTVTSGGGGSGGGGSGGGGSELVMTQTAASVSGPVGGTVTIKCQASEFIRNYLAWYQQKPGQPPKLLIYTTSNLASGVPSRFSGSGSGTEYTLTISDLECADAATYYCQNYYDISTYGNAFGGGTEVVVIKGS", 3.11],
  ["R3-75 (scFv, not shown: small tags and cut ends) scFv: QSVKESGGRLVTPGTPLTLTCTVSGIDLSSNAMSWVRQAPGEGLEWIGTISTVGKTYFASWAKGRFTISKTSTTVDLRITSPTTEDTATYFCATRYDSYGYAYNYWFGTLWGPGTLVTVTSGGGGSGGGGSGGGGSELDLTQTPPSVSGAVGGTVTIKCQASENINSELAWYQQKPGQRPKLLIYDASKLASGVPSRFSGSGSGTEYTLTISGMQCDDAATYYCQSTYYDGNYVYAFGGGTEVDVTRS", 3.12],
  ["R2-18 (scFv, not shown: small tags and cut ends) scFv: QSLEESGGRLVTPGTPLTLTCTVSGIDLSSNAMTWVRQAPGEGLEWIGTISTGGSTYFASWAKGRFTISKTSTTVDLKITSPTTEDTATYFCATRYDSYGYAYNYWFGTLWGPGTLVTVTSGGGGSGGGGSGGGGSELVMTQTAASVSEPVGGTVTIKCQASQNINNELAWYQQKPGQRPKLLIYDASKLASGVPSRFSGSGSGTEFTLTISGMQCDDAATYYCQSTYYDGNYVYAFGGGTEVDVKGS", 3.08],
  ["IgA R3-1 (scFv, not shown: small tags and cut ends) scFv: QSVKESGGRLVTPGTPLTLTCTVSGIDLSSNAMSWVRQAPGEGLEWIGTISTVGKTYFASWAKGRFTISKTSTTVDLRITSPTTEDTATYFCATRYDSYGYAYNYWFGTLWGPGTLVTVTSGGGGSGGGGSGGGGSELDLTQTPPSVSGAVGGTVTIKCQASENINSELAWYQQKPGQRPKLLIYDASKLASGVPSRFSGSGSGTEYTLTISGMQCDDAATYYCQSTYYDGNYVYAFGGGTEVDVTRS", 3.02],
  ["R3-23 (scFv, not shown: small tags and cut ends) scFv: QSVKESEGRLVTPGTPLTLTCTVSGFSLSRYAVSWVRQAPGKGLEWIGIIGSGGSTSYATWARGRFTISKTSTTVDLKITSPTTEDTVTYFCGSYYDSHGYAYVSLWGPGTLVTVTSGGGGSGGGGSGGGGSELVLTQTPSPVSGAVGGTVTINCQASQSISTALAWYQQKPGQPPKLLIYSASTLASGVSSRFKGSGSGTGFTLTISDLECADAATYYCQSYYGSSSDNAFGGGTEVVIKRS", 3.02]
]}
